What melting point was measured for each of the following?

{"columns": ["SMILES CODE", "melting point"],
 "data": [
  ["O=C(O)CCNS(=O)(=O)c1cccc([N+](=O)[O-])c1", "134 to 136 °C"]
]}

Quick request: melting point for each listed item, please.
1. Cc1ccc2[nH]c(-c3ccc(Br)cc3)c(CCC(=O)O)c2c1
2. Clc1ncnc2c1oc1ccccc12
3. COc1ccc(NS(=O)(=O)c2ccc(N3CCCCC3)c(N)c2)cc1
4. O=C(O)CCCNC(=O)c1ccco1

-- reply
101 to 103 °C
144 to 146 °C
111 to 113 °C
91 to 93 °C

Quick request: melting point for each listed item, please.
1. O=C(CCl)NC(=O)OCc1ccccc1
2. CC(C)CCc1cc(N)on1
3. Cn1c(CO)nc2cc(C(F)(F)F)ccc21
4. Cn1c(N)c(C(=O)CCl)c(=O)[nH]c1=O
5. NCc1ccc(N2CC=CC2)cc1
6. NC(=O)c1ccc(C(=O)O)s1

-- reply
1. 113 to 115 °C
2. 61 to 63 °C
3. 170 to 172 °C
4. 356 to 358 °C
5. 74 to 76 °C
6. 317 to 319 °C

Quick request: melting point for each listed item, please.
1. O=C(O)Cc1ccc(C(F)(F)F)cc1[N+](=O)[O-]
2. COC(=O)c1ccc(N)cc1Cl

-- reply
145 to 147 °C
107 to 109 °C

* * *

What melting point was measured for each of the following?

Below are worked cases with known answers.
{"columns": ["MOLECULE", "melting point"],
 "data": [
  ["CC(=O)OCc1ccc(Cl)cc1C#N", "54 to 56 °C"],
  ["Cc1sc2ncnc(NCC(=O)O)c2c1C", "244 to 246 °C"],
  ["c1c[nH]c(C2CCCCN2)n1 (configuration not stated)", "144 to 146 °C"]
]}

Quick request: melting point for each listed item, please.
1. O=C(O)COc1ccc(C(=O)c2ccccc2Cl)cc1
2. Cc1ccccc1-c1nn(-c2ccccc2)cc1C(=O)O
3. O=C(O)CNC(=O)CC1CCCC1
4. O=c1[nH]ncc2cccnc12

-- reply
["141 to 143 °C", "177 to 179 °C", "98 to 100 °C", "309 to 311 °C"]

* * *

OUTCOME MEASURE: melting point

Quick request: melting point for each listed item, please.
1. OC1(Cc2ccccc2)CCCC1
2. O=C1CCOc2c1cc(Br)cc2[N+](=O)[O-]
3. O=C(O)c1ccc(-c2ccc(F)cc2)cc1F

-- reply
56 to 58 °C
104 to 106 °C
237 to 239 °C

* * *

What melting point was measured for each of the following?

{"columns": ["COMPOUND", "melting point"],
 "data": [
  ["O=C(O)c1ccc2c(=O)[nH][nH]c(=O)c2c1", "250 to 252 °C"]
]}

Quick request: melting point for each listed item, please.
1. Cc1n[nH]c(C2CCCCC2)n1
2. NCc1ccc(N2CCSCC2)cc1
3. O=C(O)CNS(=O)(=O)c1c[nH]c2ncccc12
4. O=C(O)Cc1csc(NC(=O)c2ccc(Br)o2)n1

-- reply
1. 127 to 129 °C
2. 50 to 52 °C
3. 273 to 275 °C
4. 214 to 216 °C

Quick request: melting point for each listed item, please.
1. O=C(Nc1cccs1)OCC(F)(F)F
2. COc1ccccc1CNC(N)=O
3. COc1ccc(NC(=O)OCC(F)(F)F)cn1
4. Cc1ccccc1-c1nnc(Cl)n1-c1ccccc1C
5. Cc1noc(C)c1S(=O)(=O)NCC(=O)O
6. Cn1cc(NC(=O)OCC(F)(F)F)ccc1=O
7. CNc1cc(Cl)nc(C)n1
8. CNC(=O)c1ccc(C#N)cc1

-- reply
58 to 60 °C
124 to 126 °C
86 to 88 °C
200 to 202 °C
113 to 115 °C
208 to 210 °C
143 to 145 °C
209 to 211 °C

Quick request: melting point for each listed item, please.
1. COc1cccc(Cc2nnc(N)s2)c1
2. O=C(O)C(c1ccccc1)n1cccn1 (stereo unspecified)
3. Cc1nc2c(s1)C(O)CCC2 (stereo unspecified)
4. Cc1ccc(S(=O)(=O)OC(c2nc(C)cs2)C(F)(F)F)cc1 (stereo unspecified)
5. O=C1CC2(CCCCC2)C(=O)O1
6. Cc1cc(N)n(-c2nc3ccccc3[nH]2)n1
7. N#Cc1cccc(OCCCCC(=O)O)c1

-- reply
104 to 106 °C
141 to 143 °C
80 to 82 °C
105 to 107 °C
54 to 58 °C
203 to 205 °C
78 to 80 °C

Quick request: melting point for each listed item, please.
1. O=[N+]([O-])c1cc(F)c(S(=O)(=O)Cl)c(F)c1
2. COC(=O)c1ccccc1-n1ncc(Cl)c(Cl)c1=O
3. Fc1cc2nc(Cl)ccc2cc1Br
4. CC(Cl)C(=O)NC(c1ccccc1)c1ccccc1 (stereo unspecified)
5. COc1cccc(-n2c(C)cc(C(=O)O)c2C)c1
6. O=C(O)CS(=O)(=O)Cc1cccs1
7. NC(=O)NC(CC(=O)O)c1cccs1 (stereo unspecified)
8. Cn1cc(Nc2ccc(=O)n(C)c2)ccc1=O

-- reply
73 to 75 °C
125 to 127 °C
161 to 163 °C
130 to 139 °C
142 to 144 °C
107 to 109 °C
190 to 192 °C
270 to 272 °C

Quick request: melting point for each listed item, please.
1. O=C(O)c1oc2ccccc2c1CSc1cccs1
2. CCOC(=O)c1c(C)nn2c(=O)cc(CCl)[nH]c12
3. CCCCn1c(SCC(=O)O)nc2cc(C(F)(F)F)ccc21
4. CC(C)Cn1cnc2c1c(=O)[nH]c(=O)n2CC(C)C
5. COc1ccccc1C1(C)NC(=O)N(CC(=O)O)C1=O (stereo unspecified)
6. COc1ccc2[nH]cc(C3CCNCC3)c2c1
7. CNC1(C(=O)O)CCCCC1
8. Cc1ccc(C)c(C(=O)CCl)c1

-- reply
1. 166 to 168 °C
2. 218 to 220 °C
3. 120 to 122 °C
4. 158 to 160 °C
5. 179 to 181 °C
6. 169 to 171 °C
7. 309 to 311 °C
8. 28 to 30 °C

Quick request: melting point for each listed item, please.
1. Cc1ccc(Oc2ccc(N)cc2)nn1
2. Cc1nnc(Cl)n1-c1ccccc1
3. Cn1cc(C#N)c(=O)[nH]c1=O

-- reply
["114 to 116 °C", "252 to 254 °C", "239 to 241 °C"]

Quick request: melting point for each listed item, please.
1. CCOc1ccc(S(=O)(=O)N2CCNCC2)cc1OCC
2. C1CC(C2CCOCC2)CCN1
3. CC(=O)NCc1ccc(C(C)=O)s1
4. Oc1nc(S)nc2c1CCC2
5. COC(=O)CCS(=O)(=O)c1ccc(Br)cc1
6. Nc1c(Cl)nc2ccccc2c1N
7. Nc1cccc(NC(=O)Nc2cccc(C(F)(F)F)c2)c1

-- reply
1: 132 to 134 °C; 2: 52 to 54 °C; 3: 129 to 131 °C; 4: 288 to 290 °C; 5: 75 to 77 °C; 6: 178 to 180 °C; 7: 180 to 182 °C

Quick request: melting point for each listed item, please.
1. CC(C)CC(=O)NCCc1ccc(S(N)(=O)=O)s1
2. Cc1cc(C)c(C(N)=O)c(Cl)n1
3. COc1cccc(-c2nnc(N)o2)c1OC
4. N#CCc1ccc(OCc2ccccn2)cc1
5. CN(C)C(=O)c1cccc(S(N)(=O)=O)c1
6. Cc1ccc(CN2CC(C(=O)O)CC2=O)cc1 (stereo unspecified)
7. CC1CNc2cc(F)ccc2C(=O)N1 (stereo unspecified)
8. CCOc1ccc(S(=O)(=O)N2CCCCC2)cc1N

-- reply
1. 113 to 115 °C
2. 172 to 174 °C
3. 185 to 187 °C
4. 76 to 78 °C
5. 121 to 123 °C
6. 152 to 156 °C
7. 169 to 171 °C
8. 134 to 136 °C

Quick request: melting point for each listed item, please.
1. COc1nc(C)cc(C)c1C#N
2. Cc1ccc(OCCC(=O)O)c(Br)c1

-- reply
["96 to 98 °C", "119 to 121 °C"]
